Cited source: patent US20050043304A1

Listing of entries alongside the reported melting point.

[in] // melting point lookup, key: NCc1ccc(CCCNCCNC(=O)c2ccc3ccccc3c2)cc1
[out] 69.7 to 72.2 °C

[in] Looking for the measured melting point of CN(CCCc1ccc(CN)cc1)CCNS(=O)(=O)c1ccc2ccccc2c1 , can you help?
[out] 91.6 to 92 °C

[in] Entry under review: CN(CCCc1ccc(CN)cc1)CCNS(=O)(=O)c1ccc2ccccc2c1Cl . Reported melting point?
[out] 221.5 to 222.7 °C

[in] Item CN(CCCc1ccc(CN)cc1)CCNC(=O)c1cc2cc(Cl)ccc2[nH]1 has what recorded melting point?
[out] 166.4 to 170 °C

---

biological target: β-tryptase (Homo sapiens, UniProt Q15661); construct: purchased Promega Corporation; experiment: β-Tryptase Inhibition Test; format: biochemical; conditions: substrate Boc-Phe-Ser-Arg-MCA, 25° C., 1 hour; read-out: Tryptase Inhibiting Activity IC50
Sequence (Q15661 31-275): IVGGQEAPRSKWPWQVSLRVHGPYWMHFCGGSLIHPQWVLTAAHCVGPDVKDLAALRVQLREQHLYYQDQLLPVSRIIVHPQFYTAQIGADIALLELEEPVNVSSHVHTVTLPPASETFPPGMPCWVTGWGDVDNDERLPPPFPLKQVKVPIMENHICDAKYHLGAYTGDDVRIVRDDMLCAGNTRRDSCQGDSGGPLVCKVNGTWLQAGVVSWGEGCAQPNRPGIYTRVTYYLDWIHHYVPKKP
RECORDED_METRIC: IC50 (nM)

Illustrative cases are given below, each with its answer.
{"columns": ["COMPOUND", "IC50 (nM)"],
 "data": [
  ["CN(CCCc1ccc(CN)nc1)CCNC(=O)c1ccc2[nH]ccc2c1 [Compound 89]", 140],
  ["CN(CCCc1ccc(CN)cc1)CCNC(=O)c1ccc2ncsc2c1 [Compound 78]", 20]
]}

A. NCc1ccc(CCCNCCNC(=O)c2ccc3ccccc3c2)cc1 [Compound 11]
B. CN(CCCc1ccc(CN)cc1)CCNC(=O)c1nc2ccccc2s1 [Compound 77]
[in] Lower value for measured IC50? Options: A , B Mark your answer with the label of the selected entry.
[out] B
(B: 73 nM, A: 150 nM)

---

target: β-tryptase (Homo sapiens); construct: purchased Promega Corporation; test: β-Tryptase Inhibition Test; format: biochemical; conditions: Tryptase Inhibiting Activity IC50, substrate Boc-Phe-Ser-Arg-MCA, 25° C., 1 hour
RECORDED_METRIC: IC50 (nM)

{"columns": ["MOL_SMILES", "IC50 (nM)"],
 "data": [
  ["NCc1ccc(CCCNCCNS(=O)(=O)c2ccc3c(c2)CCC3)cc1", 200],
  ["NCc1ccc(CCCNCCNS(=O)(=O)c2ccc3sccc3c2)cc1", 210],
  ["NCc1ccc(CCCNCCNS(=O)(=O)c2ccc3c(c2)CNCC3)cc1", 190]
]}

---

molecular target: β-tryptase (Homo sapiens, UniProt Q15661); construct: purchased Promega Corporation; experiment: β-Tryptase Inhibition Test; format: biochemical; settings: selectivity test, Table 7; read-out: Enzyme Inhibition IC50 Tryptase
RECORDED_METRIC: IC50 (nM)

{"columns": ["MOL_SMILES", "IC50 (nM)"],
 "data": [
  ["CN(CCCc1ccc(CN)cc1)CCNC(=O)c1ccc2cc(Br)ccc2c1", 8],
  ["CN(CCCc1ccc(CN)cc1)CCNC(=O)c1cc2cc(Cl)ccc2[nH]1", 6]
]}

1. CN(CCCc1ccc(CN)cc1)CCNC(=O)c1cc2cc(OCc3ccccc3)ccc2[nH]1
2. Cc1ccc2[nH]c(C(=O)NCCN(C)CCCc3ccc(CN)cc3)cc2c1
3. CC(=O)c1ccc2[nH]c(C(=O)NCCN(C)CCCc3ccc(CN)cc3)cc2c1
[in] # rank by IC50, ascending (min first) Please list the labels according to the requested order.
[out] 2, 3, 1

I. CN(CCCc1ccc(CN)cc1)CCNC(=O)c1cc2cc(Br)ccc2[nH]1
II. NCc1ccc(CCCNCCNC(=O)c2ccc3ccccc3c2)cc1
[in] Look at I and II . Which one has the lower recorded IC50 number? Please reply using the label of the selected record.
[out] I

---

molecular target: β-tryptase (Homo sapiens, UniProt Q15661); construct: purchased Promega Corporation; assay: β-Tryptase Inhibition Test; assay type: biochemical; conditions: substrate Boc-Phe-Ser-Arg-MCA, 25° C., 1 hour; read-out: Tryptase Inhibiting Activity IC50
RECORDED_METRIC: IC50 (µM)

Answered cases to consult:
{"columns": ["MOL_SMILES", "IC50 [µM]"],
 "data": [
  ["CN(CCCc1ccc(CN)cc1)CCNCc1cc2ccccc2s1", 0.31],
  ["CN(CCCc1ccc(CN)cc1)CCNC(=O)c1ccc2occc2c1", 0.064],
  ["CCN(CCCc1ccc(CN)cc1)CCNS(=O)(=O)c1ccc2ccccc2c1", 0.14],
  ["CN(CCCc1ccc(CN)cc1)CCNC(=O)c1ccc2c(ccn2C)c1", 0.001],
  ["CN(CCCc1ccc(CN)s1)CCNC(=O)c1cc2ccccc2s1", 0.2]
]}

P. CN(CCCc1ccc(CN)cc1)CCNS(=O)(=O)c1ccc2ccccc2c1Cl
Q. Cc1ccc2[nH]c(C(=O)NCCN(C)CCCc3ccc(CN)cc3)cc2c1
[in] Parameter metric = IC50. Return the lower-valued option from P and Q . Your answer should be the label attached to the chosen record.
[out] Q

I. CN(CCCc1ccc(CN)cc1)CCNC(=O)c1cc2ccccc2o1
II. CN(CCCc1ccc(CN)cc1)CCNC(=O)c1cc2cc(C(=O)O)ccc2[nH]1
[in] Could you tell me which of these two has the smaller IC50 figure? First: I Second: II Respond using the label that marks the chosen record.
[out] I
(I: 0.02 µM, II: 0.055 µM)

---

target: β-tryptase (Homo sapiens, UniProt Q15661); construct: purchased Promega Corporation; test: β-Tryptase Inhibition Test; assay type: biochemical; conditions: substrate Boc-Phe-Ser-Arg-MCA, 25° C., 1 hour; read-out: Tryptase Inhibiting Activity IC50
RECORDED_METRIC: IC50 (µM)

Example results:
{"columns": ["MOL_SMILES", "RESULT_NUMBER"],
 "data": [
  ["CN(CCCc1ccc(CN)cc1)CCNC(=O)c1cc2cc(C(F)(F)F)ccc2[nH]1", 0.032],
  ["CN(CCCc1ccc(CN)cc1)CCNC(=O)c1cc2cc(F)ccc2[nH]1", 0.014],
  ["NCc1ccc(CCCN(CCNS(=O)(=O)c2ccc3ccccc3c2)CCC(=O)O)cc1", 0.44]
]}

I. CN(CCCc1ccc(CN)cc1)CCNC(=O)c1cc2cc(Br)ccc2[nH]1
II. NCc1ccc(CCCNCCNC(=O)c2ccc3ncccc3c2)cc1
III. CN(CCCc1ccc(CN)cc1)CCNC(=O)c1sc2ccccc2c1Cl
IV. CN(CCCc1ccc(CN)cc1)CCN(C)C(=O)c1cc2cc(Cl)ccc2[nH]1
V. CN(CCCc1ccc(CN)cc1)CCNC(=O)c1c[nH]c2ccccc12
[in] Rank items: key IC50, increasing. Order the labels as requested and give them as your answer.
[out] IV, I, III, V, II
(IV: 0.001 µM, I: 0.006 µM, III: 0.015 µM, V: 0.1 µM, II: 0.19 µM)

---

Molecular target: β-tryptase (Homo sapiens, UniProt Q15661)
Construct: purchased Promega Corporation
Experiment: β-Tryptase Inhibition Test
Assay type: biochemical
Experimental: Sixty μL of a tris-hydrochloric acid buffer (pH 7.5, containing 200 ng/mL of heparin) was added to 20 μL of β-tryptase (manufactured by Promega Corporation) adjusted to 100 ng/mL with the same buffer. […] Measured was fluorescence of free MCA generated by laser light with an excitation wavelength of 355 nm (fluorescent wavelength=460 nm, hereinafter abbreviated to F 460 nm). […] The β-tryptase inhibitory activity was measured by the method described above.
Some molecules, each annotated with its measured IC50.
Report the value in nM with no unit label.

[in] What value of measured IC50 is listed for CN(CCCc1ccc(CN)cc1)CCNS(=O)(=O)c1ccc2ccccc2c1 ?
[out] 120

[in] Param item = NCc1ccc(CCCNCCNS(=O)(=O)c2ccc3ccccc3c2)cc1 ; retrieve measured IC50.
[out] 86

---

Parameter: IC50. Scope: all listed entries.
biological target: FXa (Homo sapiens, UniProt P00742); construct: FXa (manufactured by Enzyme Research Ltd.); purchased Enzyme Research Ltd; assay: FXa Inhibition Test; type: biochemical; conditions: substrate S-2222, 37° C., 30 minutes; read-out: Enzyme Inhibition IC50 FXa
Sequence (P00742 235-488 limits assumed): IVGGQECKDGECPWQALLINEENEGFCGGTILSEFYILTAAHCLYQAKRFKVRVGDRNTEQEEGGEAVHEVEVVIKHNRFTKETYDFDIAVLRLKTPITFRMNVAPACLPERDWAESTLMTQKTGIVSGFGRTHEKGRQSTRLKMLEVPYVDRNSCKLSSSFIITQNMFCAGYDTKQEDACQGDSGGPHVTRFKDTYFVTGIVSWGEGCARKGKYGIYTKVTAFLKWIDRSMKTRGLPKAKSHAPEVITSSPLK
Sequence (P00742 41-179 partner limits assumed): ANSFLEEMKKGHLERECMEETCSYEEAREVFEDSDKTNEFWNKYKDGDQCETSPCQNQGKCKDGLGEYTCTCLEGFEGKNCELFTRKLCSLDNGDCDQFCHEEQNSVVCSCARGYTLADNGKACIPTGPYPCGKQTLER

Take a look at these entries with their results.
{"columns": ["MOL_SMILES", "RECORDED_METRIC", "RESULT"],
 "data": [
  ["CN(CCCc1ccc(CN)cc1)CCNC(=O)c1cc2cc(Br)ccc2[nH]1", "IC50", "> 100 µM"],
  ["NCc1ccc(CCCNCCNS(=O)(=O)c2ccc3ccccc3c2Cl)cc1", "IC50", "> 100 µM"],
  ["CN(CCCc1ccc(CN)cc1)CCNC(=O)c1cc2cc(Cl)ccc2[nH]1", "IC50", "> 100 µM"],
  ["CN(CCCc1ccc(CN)cc1)CCNC(=O)c1cc2cc(OCc3ccccc3)ccc2[nH]1", "IC50", "> 100 µM"],
  ["CN(CCCc1ccc(CN)cc1)CCNC(=O)c1ccc2cc(Br)ccc2c1", "IC50", "> 100 µM"],
  ["Cc1ccc2[nH]c(C(=O)NCCN(C)CCCc3ccc(CN)cc3)cc2c1", "IC50", "> 100 µM"],
  ["CN(CCCc1ccc(CN)cc1)CCNS(=O)(=O)c1ccc2ccccc2c1", "IC50", "> 30 µM"],
  ["NCc1ccc(CCCNCCNC(=O)c2ccc3ccccc3c2)cc1", "IC50", "> 30 µM"],
  ["NCc1ccc(CCCNCCNS(=O)(=O)c2ccc3ccccc3c2)cc1", "IC50", "> 100 µM"]
]}

[in] Which IC50 is reported for this compound? CC(=O)c1ccc2[nH]c(C(=O)NCCN(C)CCCc3ccc(CN)cc3)cc2c1
[out] > 100 µM
